Values compiled from ChEMBL document CHEMBL3393003.

# protocol_details: Apparent volume of distribution in Sprague-Dawley rat at 1.1 mg/kg, iv
# Assay type: ADME, organism-based
# Design: dose 1.1 mg/kg, route intravenous
# run_parameters: in vivo, read-out: Vz
readout_name: Vd

- O=C(c1ccco1)N1CCN2C(=O)c3ccncc3C12c1ccc(Cl)cc1 (racemic): 8.7 L/kg

----------
# protocol_details: Total clearance in Sprague-Dawley rat at 2.1 mg/kg, iv
# Assay type: ADME, organism-based
# Design: dose 2.1 mg/kg, route intravenous
# run_parameters: in vivo
readout_name: clearance (mL/min/kg)

• O=C(c1ccc(F)nc1)N1CCN2C(=O)c3cc[n+]([O-])cc3C12c1ccc(Cl)cc1 (racemic) = 7.9
